I'd be grateful if you could share measured melting point for these entries.

Enquiry: Return reported melting point; argument: C[C@@H](NC(=O)c1c[nH]c2ncc(-c3nn(C)c4cc(Cl)cc(Cl)c34)nc12)C(=O)N1CC(C#N)C1
Return: 196 to 200 °C

Enquiry: Return reported melting point; argument: COc1ccc(O)c2c(C)c(C)[nH]c12
Return: 164 °C

Enquiry: Return reported melting point; argument: CCOC(=O)C(NC(C)=O)(C(=O)OCC)C1=Nc2ccc(Br)cc2C(c2ccccn2)=NC1
Return: 178 to 180 °C

Enquiry: Return reported melting point; argument: CNC(=O)n1sc(OC(C)C)nc1=O
Return: 95 °C

Enquiry: Return reported melting point; argument: CCOC(=O)C1=C(N)Nc2ncnc(OC(C)C)c2C1c1ccccc1OC (stereo unspecified)
Return: 222 to 223 °C

Enquiry: Return reported melting point; argument: BrCc1cc(CBr)cc(CBr)c1
Return: 95.5 to 97.5 °C

* * *

parameter measured: melting point (°C)
Return type: number; implicit unit °C.

Enquiry: Return reported melting point; argument: Cc1cc(C)cc(COC(=O)C(NC(=O)OC(C)(C)C)C(c2ccccc2)c2ccccc2)c1 (stereo unspecified)
Return: 123

Enquiry: Return reported melting point; argument: COc1ccc(S(=O)(=O)N2C(=O)C(O[Si](C)(C)C)(c3ccccc3OC(F)(F)F)c3cc(Cl)ccc32)c(OC)c1 (stereo unspecified)
Return: 181

Enquiry: Return reported melting point; argument: [N-]=[N+]=NC(=O)c1cn(C2CCN(Cc3ccccc3)C2)nn1 (stereo unspecified)
Return: 160

* * *

I'd be grateful if you could share measured melting point for these entries.

Enquiry: Return reported melting point; argument: COc1ccc(-c2csc(NC(=O)C(=O)OCC(C)c3ccccc3)n2)cc1 (stereo not given)
Return: 150 to 152 °C

Enquiry: Return reported melting point; argument: O=C(c1ccccc1Cl)P1(=O)Oc2ccccc2-c2ccccc21 (stereo not given)
Return: 108 to 110 °C

Enquiry: Return reported melting point; argument: O=C(O)Cc1ccccc1N1CCOCC1
Return: 128 °C

Enquiry: Return reported melting point; argument: CC(C)(CO)Nc1nc(-c2cccc(Br)c2)cs1
Return: 116 to 120 °C

Enquiry: Return reported melting point; argument: COc1ccc(COc2cc3c(cc2-c2cc(C=CC(=O)O)ccc2O)C(C)(C)CCC3(C)C)cc1
Return: 170 to 172 °C

* * *

I'd be grateful if you could share measured melting point for these entries.

Enquiry: Return reported melting point; argument: CC(=O)OC1NC(=O)C2=C1CN=C(c1ccccc1Cl)c1cc(Cl)ccc12 (stereo unspecified)
Return: 172 to 174 °C

Enquiry: Return reported melting point; argument: O=c1[nH]c2cc(Cl)cc(Cl)c2c(=O)n1CCc1ccccc1
Return: 230 to 232 °C

Enquiry: Return reported melting point; argument: c1ccc2cc(OCCCNN3CCCCC3)ccc2c1
Return: 78 °C

Enquiry: Return reported melting point; argument: O=C1C(c2ccc(O)cc2)=C(Br)c2c(O)cc(O)cc21
Return: 160 to 162 °C

Enquiry: Return reported melting point; argument: COc1ccc(-c2nc(CO)c[nH]2)cc1OC1CCCC1
Return: 188 to 190 °C

Enquiry: Return reported melting point; argument: N#Cc1ncccc1Oc1cccc(F)c1
Return: 92 to 93 °C

Enquiry: Return reported melting point; argument: OCC1OC(c2ccc(Cl)c(Cc3ccc(-c4ccc(F)nc4)s3)c2)C(O)C(O)C1O (stereo unspecified)
Return: 131 to 134 °C

Enquiry: Return reported melting point; argument: Cc1sc(-c2cccs2)nc1O
Return: 152 to 153 °C

Enquiry: Return reported melting point; argument: COc1cc(OC)cc(C2CC=CCC2=O)c1 (stereo unspecified)
Return: 60 to 62 °C

Enquiry: Return reported melting point; argument: Cc1nc(-c2ccc(-c3ccccc3S(=O)(=O)Nc3onc(C)c3C)cc2)oc1C
Return: 96 to 102 °C

Enquiry: Return reported melting point; argument: CCC1C(=O)Oc2c(Oc3ccccc3Cl)cccc21 (stereo unspecified)
Return: 78 to 79 °C

Enquiry: Return reported melting point; argument: Cc1nc(-c2ccsc2)c2nc(-c3ccccc3)cc-2[nH]1
Return: 232 to 233 °C

Enquiry: Return reported melting point; argument: C=C(Sc1ccc(C(C)(C)C)cc1)S(=O)(=O)c1ccc(Cl)cc1
Return: 74 to 79 °C

Enquiry: Return reported melting point; argument: COC(=O)C(Cl)=NNc1ccc(Cl)cc1
Return: 149 to 150 °C

Enquiry: Return reported melting point; argument: Cc1ccc2c(c1)C1(COc3cc4c(cc31)OCCO4)C(=O)N2Cc1ncccc1C(F)(F)F (stereo unspecified)
Return: 137 to 139 °C

Enquiry: Return reported melting point; argument: COc1ccc2c3c(c(=O)oc2c1)CN(Cc1ccc([N+](=O)[O-])cc1)CC3
Return: 176 to 178 °C

Enquiry: Return reported melting point; argument: CNC(=O)[C@@H](NC(=O)[C@@H](CC(=O)O)n1ccc(-c2ccc(-c3ccc(C#N)cc3)cc2)c1)C(C)(C)C
Return: 142 to 144 °C

Enquiry: Return reported melting point; argument: CCCCCS(=O)(=O)NC(=O)c1ccc2nc(C)n(Cc3ccc(N(C)C(=O)C(C)(C)C)cc3Cl)c2n1
Return: 207 to 208 °C

Enquiry: Return reported melting point; argument: NC(=O)c1c(Cl)c(-c2ccccc2)n2c1CN(C(=O)N1CCOCC1)CC2
Return: 219 to 220 °C

Enquiry: Return reported melting point; argument: CS(=O)(=O)Nc1cc(-c2ncc(C(F)(F)F)cc2Cl)ccc1Cl
Return: 133 to 134 °C

Enquiry: Return reported melting point; argument: CC1=NN(C)C(=O)C1(Cl)C(=O)c1cc(C)ccc1[N+](=O)[O-] (stereo unspecified)
Return: 110 to 111 °C

* * *

I'd be grateful if you could share measured melting point for these entries.

Enquiry: Return reported melting point; argument: C1=Cc2c3c(ccc2=N1)=CC=N3
Return: 201 to 205 °C

Enquiry: Return reported melting point; argument: COc1ccc(C(=O)Cc2ccccc2)c(O)c1
Return: 87 to 88 °C

Enquiry: Return reported melting point; argument: O=C(CCc1ccccc1)N[C@H](Cc1ccc(C(F)(F)F)cc1)[C@@H](O)c1cccc(F)c1 (racemic)
Return: 151 to 152 °C

Enquiry: Return reported melting point; argument: CC[C@@]1(O)C(=O)OCc2c1cc1n(c2=O)Cc2c-1nc1ccc(C)c3c1c2C(NC(C)=O)CN3 (stereo partly specified)
Return: 225 to 235 °C

Enquiry: Return reported melting point; argument: Cn1c(=O)c2cccnc2n(C)c1=O
Return: 160 to 161 °C

Enquiry: Return reported melting point; argument: COc1nc(Cl)ccc1C=O
Return: 62 to 64 °C

Enquiry: Return reported melting point; argument: O=C1CCC(N2C(=O)c3cccc(NC(=O)c4cccc(Cl)c4)c3C2=O)C(=O)N1 (stereo unspecified)
Return: 257 to 259 °C

Enquiry: Return reported melting point; argument: COc1ccc(CS(=O)CC(=O)NO)cc1 (stereo unspecified)
Return: 160 °C

Enquiry: Return reported melting point; argument: COc1cc(C=C2N=C(C)OC2=O)ccc1OC(C)=O
Return: 205 to 206 °C

Enquiry: Return reported melting point; argument: ClCCOc1cccc2ncccc12
Return: 75 to 78 °C

Enquiry: Return reported melting point; argument: CCCCCCCCCCCOCCCN=C=O
Return: 72 to 78 °C

* * *

I'd be grateful if you could share measured melting point for these entries.
Return type: number; implicit unit °C.

Enquiry: Return reported melting point; argument: CC(C)(C)OC(=O)NC1CCN(CCO)CC1
Return: 66

Enquiry: Return reported melting point; argument: CCOC(=O)CC(=O)c1cc2cc(F)c(F)cc2nc1Cl
Return: 107

Enquiry: Return reported melting point; argument: CCCc1nc(SC2CCC(CC(=O)O)CC2)c(C(=O)O)n1Cc1cc2c(cc1Cl)OCO2 (stereo not given)
Return: 166

* * *

I'd be grateful if you could share measured melting point for these entries.

Enquiry: Return reported melting point; argument: CC1(O)C(O)C(CO)OC1n1ccc2c(N)ncnc21 (stereo unspecified)
Return: 222 °C

Enquiry: Return reported melting point; argument: Cc1nccn1CCNC(=O)c1cccc2oc(-c3ccccc3)nc12
Return: 125 to 127 °C

Enquiry: Return reported melting point; argument: CCCCNC(=O)CP(=O)(O)O
Return: 115 to 125 °C

Enquiry: Return reported melting point; argument: CN(C(=O)COc1nnc(C(F)(F)F)s1)c1ccccc1
Return: 54 °C

Enquiry: Return reported melting point; argument: O=C1CCC(c2ccccc2F)c2ccccc2N1 (stereo unspecified)
Return: 210 to 212 °C

Enquiry: Return reported melting point; argument: COc1ccc2cc(OCc3ccccc3)c(C(=O)O)cc2c1
Return: 177 to 179 °C
